- protocol_notes: AUC (0 to infinity) in Sprague-Dawley rat at 5 mg/kg, iv and 20 mg/kg, po
- Assay type: ADME, organism-based
- test_conditions: plasma
recorded_endpoint: AUC(0-inf)
// unit must come after the numeric part

Need AUC(0-inf), item Cc1nc(Nc2cc(-c3cccc(NS(=O)(=O)c4ccccc4)c3)n[nH]2)cc(N2CCN(C)CC2)n1
1400 ng·h/mL

----------
Parameter: pIC50. Scope: all listed entries.
- tested_system: Aurora kinase A (Homo sapiens, UniProt O14965)
- Sequence (O14965 whole entry): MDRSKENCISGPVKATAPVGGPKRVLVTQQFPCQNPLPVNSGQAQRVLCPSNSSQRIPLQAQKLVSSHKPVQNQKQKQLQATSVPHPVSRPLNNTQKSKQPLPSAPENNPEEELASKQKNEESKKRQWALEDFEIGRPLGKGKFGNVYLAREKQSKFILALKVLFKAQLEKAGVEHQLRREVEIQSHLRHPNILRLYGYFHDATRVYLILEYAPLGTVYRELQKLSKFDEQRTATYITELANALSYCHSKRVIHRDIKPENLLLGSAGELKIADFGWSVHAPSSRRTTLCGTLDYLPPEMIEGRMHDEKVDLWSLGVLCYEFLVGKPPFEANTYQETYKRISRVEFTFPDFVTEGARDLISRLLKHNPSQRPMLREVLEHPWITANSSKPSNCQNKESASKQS
- protocol_notes: Inhibition of recombinant GST-tagged Aurora A expressed in Sf9 insect cells after 90 mins by Kinase-Glo assay
pIC50: −log10 of the molar value.

- chemical_smiles: "COc1ccc(S(=O)(=O)Nc2cccc(-c3cc(NC(=O)c4ccc(N5CCN(C)CC5)cc4)[nH]n3)c2)cc1"
  tested_system: "Aurora kinase A (Homo sapiens, UniProt O14965)"
  pIC50: "< 6.00"
- chemical_smiles: "CCCS(=O)(=O)Nc1cccc(-c2cc(NC(=O)c3ccc(N4CCN(C)CC4)cc3)[nH]n2)c1"
  tested_system: "Aurora kinase A (Homo sapiens, UniProt O14965)"
  pIC50: 5.79
- chemical_smiles: "CC(C)S(=O)(=O)Nc1cccc(-c2cc(NC(=O)c3ccc(N4CCN(C)CC4)cc3)[nH]n2)c1"
  tested_system: "Aurora kinase A (Homo sapiens, UniProt O14965)"
  pIC50: "< 6.00"
- chemical_smiles: "O=C(Nc1cc(-c2cccc(NS(=O)(=O)c3ccccc3)c2)n[nH]1)c1ccc(N2CCOCC2)cc1"
  tested_system: "Aurora kinase A (Homo sapiens, UniProt O14965)"
  pIC50: 6.41
- chemical_smiles: "Cc1nc(NCCN(C)C)cc(Nc2cc(-c3cccc(NS(=O)(=O)c4ccccc4)c3)n[nH]2)n1"
  tested_system: "Aurora kinase A (Homo sapiens, UniProt O14965)"
  pIC50: "< 6.00"
- chemical_smiles: "CCS(=O)(=O)Nc1cccc(-c2cc(NC(=O)c3ccc(N4CCN(C)CC4)cc3)[nH]n2)c1"
  tested_system: "Aurora kinase A (Homo sapiens, UniProt O14965)"
  pIC50: "< 6.00"
- chemical_smiles: "O=C(Nc1cc(-c2cccc(NS(=O)(=O)c3ccccc3)c2)n[nH]1)c1ccc(OCCN2CCCC2)cc1"
  tested_system: "Aurora kinase A (Homo sapiens, UniProt O14965)"
  pIC50: 5.93
- chemical_smiles: "Cc1cccc(S(=O)(=O)Nc2cccc(-c3cc(Nc4cc(N5CCN(C)CC5)nc(C)n4)[nH]n3)c2)c1"
  tested_system: "Aurora kinase A (Homo sapiens, UniProt O14965)"
  pIC50: "< 6.00"
- chemical_smiles: "O=C(Nc1cc(-c2cccc(NS(=O)(=O)c3ccccc3)c2)n[nH]1)c1cccc(N2CCOCC2)c1"
  tested_system: "Aurora kinase A (Homo sapiens, UniProt O14965)"
  pIC50: "< 6.00"
- chemical_smiles: "Cc1nc(Nc2cc(-c3cccc(NS(=O)(=O)c4ccccc4)c3)n[nH]2)cc(N2CCC(O)CC2)n1"
  tested_system: "Aurora kinase A (Homo sapiens, UniProt O14965)"
  pIC50: 6.27

Need pIC50, item Cc1nc(NCCN2CCOCC2)cc(Nc2cc(-c3cccc(NS(=O)(=O)c4ccccc4)c3)n[nH]2)n1
< 6.00

Need pIC50, item CCCCS(=O)(=O)Nc1cccc(-c2cc(Nc3cc(N4CCN(C)CC4)nc(C)n3)[nH]n2)c1
< 6.00
